TEST_METHOD_NOTES: Human HepG2 cell viability assay in 384 well format
Format: toxicity, cell-based
Set-up: dose 125 nL, time 70.5 hour; concentration not given beside the values
STUDY_CONDITIONS: HepG2 cells, read-out: Inhibition
RECORDED_METRIC: cytotoxicity at 70.5 h (%)
Entry rule: numbers only, all in %.

Entry `CN(c1ccc(F)c(F)c1)S(=O)(=O)c1cc2c(c(C(=O)O)c1)OCCO2` , cytotoxicity at 70.5 h reported as -7.51

Entry `Cc1cc(C)c(C(=O)N(CCO)Cc2ccccc2F)c(=O)[nH]1` , cytotoxicity at 70.5 h reported as -8.86

Entry `Cc1ccccc1CC(=O)NCCNc1nccc(C(F)(F)F)n1` , cytotoxicity at 70.5 h reported as -8.29

Entry `Cc1cc(O)ncc1NS(=O)(=O)c1cccc(F)c1F` , cytotoxicity at 70.5 h reported as -19.8

Entry CC(SCC(=O)NC(N)=O)c1ccc(Cl)cc1 (centres undefined) , cytotoxicity at 70.5 h reported as -9.52

Entry `NC(=O)c1ccn(COc2ccccc2Cl)n1` , cytotoxicity at 70.5 h reported as -9.79

Entry `COc1cc(CN2CCC(COCc3ccccc3)CC2)cc(OC)c1` , cytotoxicity at 70.5 h reported as 19.3

Entry `Cc1noc(CNc2ccc(CC(=O)N3CCSCC3)cc2)n1` , cytotoxicity at 70.5 h reported as -5.52

Entry `CCOc1cccc(COC(=O)c2cc(Cl)ccn2)n1` , cytotoxicity at 70.5 h reported as 25.2

Entry `Cc1c(CN2C[C@H](O)[C@@H](N3CCOCC3)C2)[nH]c2ccc(F)cc12` , cytotoxicity at 70.5 h reported as 12.2

Entry COc1ccc(-c2n[nH]cc2C2SCC(=O)Nc3[nH]ncc32)cc1 (centres undefined) , cytotoxicity at 70.5 h reported as -9.36

Entry `Cn1c(-c2ccccc2Cl)nc2cc(C(=O)NC(CO)CO)cnc21` , cytotoxicity at 70.5 h reported as -8.01

Entry c1cc(CN2C[C@@H]3OCCN(CC4CCCO4)[C@@H]3C2)ccn1 (some centres undefined) , cytotoxicity at 70.5 h reported as 8.75

Entry `Cc1nnc([C@H]2CC[C@@H]3[C@@H](CCN3CC3CCOCC3)O2)o1` , cytotoxicity at 70.5 h reported as -2.48

Entry `c1ccc(CN2CCO[C@H]3[C@H](OCCN4CCCC4)CC[C@@H]32)nc1` , cytotoxicity at 70.5 h reported as -7.8

Entry COc1ccc(CCN2CC(c3nc(CSC)no3)CCC2=O)cc1 (centres undefined) , cytotoxicity at 70.5 h reported as -4.88

Entry `Fc1cccnc1Oc1cc(F)c(CN2CCCC2)c(F)c1` , cytotoxicity at 70.5 h reported as -13.4

Entry `Cc1cc(NC(=O)N(CCO)Cc2ccsc2)no1` , cytotoxicity at 70.5 h reported as -4.98

Entry `CC(=O)Nc1nc(C(=O)NCc2ccc(N3CCCCCC3)nc2)cs1` , cytotoxicity at 70.5 h reported as 7.57

Entry `Cc1cccc(S(=O)(=O)NC(=O)c2ccc3c(c2)nnn3C)c1` , cytotoxicity at 70.5 h reported as -5.75

Entry CCc1nc(CN(C)C(=O)NC(C)c2cccc(NC(C)=O)c2)cs1 (centres undefined) , cytotoxicity at 70.5 h reported as 12.9

Entry CS(=O)(=O)CCN(CCCO)C1CCc2ccccc21 (centres undefined) , cytotoxicity at 70.5 h reported as -98.4

Entry `CCOc1ccc(N(C)Cc2nnc(C3CC3)o2)cc1` , cytotoxicity at 70.5 h reported as -2.24

Entry Nc1cc(-c2c[nH]nc2C2CCCCN2C(=O)C2CCCC2)ccn1 (centres undefined) , cytotoxicity at 70.5 h reported as -7.49
